Entries with their measured Estrogenic effect, system Estrogen receptor (Rattus norvegicus) (UniProt P06211+Q62986):
reported.property: Estrogenic effect

I = COc1ccc2c(c1)OC(C)(C)C(c1ccccc1)C2c1ccc(O)cc1 (centres undefined)
II = CC1(C)Oc2cc(O)ccc2C(c2ccc(OCCN3CCCC3)cc2)C1c1ccccc1 (centres undefined)
III = COc1ccc2c(c1)OC(C)(C)C(c1ccccc1)C2c1ccc(OCCN2CCCC2)cc1 (stereo in doubt; 1)
IV = COc1ccc2c(c1)OC(C)(C)C(c1ccc(OCCN3CCCC3)cc1)C2c1ccccc1 (centres undefined)
Query :: Sort key: Estrogenic effect. Order: high to low. Scope: items listed above. Quick reminder: the answer is the labels in the order asked.
Result :: II, IV, III, I
(II: 11.8, IV: 2.2, III: 0.56, I: 0.2)
